test system: A549 cell culture; test: Cytotoxicity, colorimetric MTT assay; format: cell-based, human; conditions: A549, MTT assay

Molecule | Cytotoxicity (in words)
CC(C)C1=CC2=CCC3C(C)(C(=O)[O-])CCCC3(C)C2CC1.[K+] (stereo not shown) [II, Potassium abietate] | highest cytotoxicity
CC(C)c1cc2c(cc1Br)C1(C)CCCC(C)(C(=O)[O-])C1CC2.[K+] (stereo not shown) [III, Potassium 12-bromodehydroabietate] | highest cytotoxicity
CC(C)c1cc2c(cc1S(=O)(=O)[O-])C1(C)CCCC(C)(C(=O)[O-])C1CC2.[K+].[K+] (stereo not shown) [IV, Potassium 12-sulfodehydroabietate] | weak toxicity
CC(C)c1cc2c(cc1S(=O)(=O)O)C1(C)CCCC(C)(C(=O)O)C1CC2 (stereo not shown) [I, 12-sulfodehydroabietic acid] | weak toxicity
